test system: TK-10; assay: NCI tumour cell line growth inhibition, 48 h
Activity calls are given as the source filed them. No stated cut-off is given here; in the data, active = GI50 up to about 1.1 µM and inactive = higher.
EXPERIMENTAL READOUT: GI50

Q: Item under review: CC1OC(=O)N(CCCC=C2SCCCS2)C1=O (centres undefined) . Reported GI50?
A: > 100 µM (inactive)

Q: Item under review: CC(=O)O[C@H]1C[C@@H](OC(C)=O)[C@@](C)(O)[C@@H]2[C@@H](OC(C)=O)[C@@]3(O)[C@H](/C=C(/CO)[C@H]4O[C@H]4[C@@H](OC(C)=O)[C@@]12C)OC(=O)[C@@H]3C . Reported GI50?
A: > 25 µM (inactive)

Q: Item under review: CC1OC(O)CC(OC(=O)c2ccccc2)C1OC(=O)c1ccccc1 (centres undefined) . Reported GI50?
A: > 100 µM (inactive)

Q: Item under review: O=C(C1=CCC2(CC1)OCCO2)N(Cc1ccccc1)c1ccccc1I . Reported GI50?
A: 21.5 µM (inactive)

Q: Item under review: Cc1c2cccc-2ccc2c3ccccc3n(C(=O)c3ccc(Cl)cc3)c12 . Reported GI50?
A: > 100 µM (inactive)

* * *

system: NCI-H522; experiment: NCI tumour cell line growth inhibition, 48 h
Calls of active or inactive are those of the source. Cut-off read from the data, not from the text of the source: active = GI50 up to about 1.1 µM and inactive = higher.
Your response should consist of one outcome taken from active, inactive

INSERT INTO results (compound, class_name) VALUES
  ('O=C1CCC2(O)C3Cc4ccc(Oc5nnnn5-c5ccccc5)c5c4C2(CCN3CC2CC2)C1O5 (stereo not given)', 'inactive'),
  ('O=C(Nc1ccccc1C(=O)O)/C(=C/c1ccccc1)NC(=O)c1ccccc1', 'inactive'),
  ('O=C(CCc1n[nH]c(=S)o1)Nc1ccccc1C(F)(F)F', 'inactive'),
  ('CCCO/S(=N\S(=O)(=O)c1ccccc1)c1ccccc1[N+](=O)[O-] (stereo not given)', 'inactive');

We next turn to a different compound, shown below.
Q: Just curious, what result did COc1ccc(OC)c(Cc2cnc3nc(N)nc(N)c3c2C)c1 [PIRITREXIM ISETHIONATE] get here?
A: active

* * *

The reader will find reported GI50 values listed item by item below.
system: TK-10; assay: NCI tumour cell line growth inhibition, 48 h
Active and inactive are the calls of the source. Rule as the data show it: active = GI50 up to about 1.1 µM and inactive = higher.

Record excerpt, results attached:
INSERT INTO measurements (compound, tested_target, reported_result) VALUES
  ('Cc1ccc(C2=C(c3ccccc3)C(=O)C(c3ccccc3)=C2c2ccc(C)cc2)cc1', 'TK-10', '45.6 µM (inactive)'),
  ('CN(C)C(=O)C1CCC(=C2C(=O)OC(C)(C)OC2=O)N1C (centres undefined)', 'TK-10', '> 100 µM (inactive)'),
  ('C=C1CC/C=C(/C(=O)O)CC[C@H]2[C@@H]1CC2(C)C', 'TK-10', '> 100 µM (inactive)');

In the following, a different compound is considered.
Q: Item under review: COc1cc(C(=O)Nc2cccc3ccccc23)c(Br)c(OC)c1OC . Reported GI50?
A: > 100 µM (inactive)
